biological target: human Yes1 enzyme (Homo sapiens); construct: made in house; experiment: Yes1 enzyme inhibitory activity (time-resolved fluorometry, biotinylated peptide phosphorylation); type: biochemical; details: biotinylated peptide phosphorylation, read-out: YES_IC50
Sequence (P07947 whole entry): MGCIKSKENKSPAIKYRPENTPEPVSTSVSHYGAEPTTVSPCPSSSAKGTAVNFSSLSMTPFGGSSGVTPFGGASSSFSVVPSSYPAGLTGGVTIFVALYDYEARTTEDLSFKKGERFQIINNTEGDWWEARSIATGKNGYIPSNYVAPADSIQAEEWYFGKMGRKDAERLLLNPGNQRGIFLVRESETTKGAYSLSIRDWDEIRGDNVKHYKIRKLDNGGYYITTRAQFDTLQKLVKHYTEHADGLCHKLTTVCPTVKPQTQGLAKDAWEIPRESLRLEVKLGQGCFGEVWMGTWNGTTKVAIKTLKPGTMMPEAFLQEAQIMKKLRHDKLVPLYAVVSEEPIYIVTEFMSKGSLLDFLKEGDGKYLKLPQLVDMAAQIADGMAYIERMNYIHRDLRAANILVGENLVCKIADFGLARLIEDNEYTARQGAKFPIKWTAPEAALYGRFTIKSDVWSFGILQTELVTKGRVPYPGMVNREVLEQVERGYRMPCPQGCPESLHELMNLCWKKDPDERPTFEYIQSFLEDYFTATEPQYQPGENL
Would you kindly list IC50 for each of these molecules?
# output: bare number, implied unit nM

Q. For the molecule `Cc1cccc(S(=O)(=O)Nc2cc3[nH]c(C(=O)c4cnn(-c5cnc(Oc6ccccc6F)cc5C)c4N)cc3cc2C)n1` , give its reported IC50.
A. 2.8

Q. For the molecule `Cc1cc2cc(C(=O)c3cnn(-c4cnc(Oc5ccccc5F)cc4C)c3N)[nH]c2cc1NS(=O)(=O)c1c(F)cc(F)cc1F` , give its reported IC50.
A. 4.8

Q. For the molecule `Cc1cc(Oc2ccccc2F)ccc1-n1ncc(C(=O)c2cc3cc(OC(F)F)c(N4CC5(CCCC5)NS4(=O)=O)cc3[nH]2)c1N` , give its reported IC50.
A. 4

Q. For the molecule `Cc1cc(Oc2ccccc2F)ccc1-n1ncc(C(=O)c2cc3cc(F)c(NS(=O)(=O)c4cccc(F)n4)cc3[nH]2)c1N` , give its reported IC50.
A. 2.1

Q. For the molecule `CC(C)N1CCC(c2cc3cc(C(=O)c4cnn(-c5ccc(Oc6cccc(F)c6)cc5)c4N)[nH]c3cc2F)CC1` , give its reported IC50.
A. 1.3

Q. For the molecule `Cc1cc(Oc2ccccc2F)cc(F)c1-n1ncc(C(=O)c2cc3cc(OC(F)F)c(N4CCOC4=O)cc3[nH]2)c1N` , give its reported IC50.
A. 5.2

Q. For the molecule `Cc1cc2cc(C(=O)c3cnn(-c4cnc(Oc5ccccc5F)cc4C)c3N)[nH]c2cc1NS(=O)(=O)c1cc(Cl)ccn1` , give its reported IC50.
A. 3.7

Q. For the molecule `Cc1cc(Oc2ccccc2F)cc(C)c1-n1ncc(C(=O)c2cc3cc(F)c(NS(=O)(=O)C4CC4)cc3[nH]2)c1N` , give its reported IC50.
A. 32

Q. For the molecule `Cc1cc(Oc2c(F)cccc2F)ncc1-n1ncc(C(=O)c2cc3cc(OCC(F)F)c(N4CCN(S(C)(=O)=O)CC4)cc3[nH]2)c1N` , give its reported IC50.
A. 1.3

Q. For the molecule `COc1cccc(S(=O)(=O)Nc2cc3[nH]c(C(=O)c4cnn(-c5cnc(Oc6ccccc6F)cc5C)c4N)cc3cc2C)c1` , give its reported IC50.
A. 7.3

Q. For the molecule `Cc1cc(Oc2ccccc2F)ncc1-n1ncc(C(=O)c2cc3cc(OC(F)F)c(NS(=O)(=O)N4CCOCC4)cc3[nH]2)c1N` , give its reported IC50.
A. 3

Q. For the molecule `Cc1cc2cc(C(=O)c3cnn(-c4ccc(Oc5ccccc5F)cc4C)c3N)[nH]c2cc1NS(=O)(=O)CCCF` , give its reported IC50.
A. 1.8

Q. For the molecule `Cc1cc(Oc2ccc(F)cc2)ncc1-n1ncc(C(=O)c2cc3cc(F)c(NS(=O)(=O)CCCF)cc3[nH]2)c1N` , give its reported IC50.
A. 10
